system: Pf(NF54); assay: Drug-sensitive P. falciparum NF54, [3H]-hypoxanthine incorporation; format: cell-based; details: Plasmodium falciparum, drug-sensitive strain
Measure Name: EC50
In your response, put the unit directly after the numeric value.

*Q* Which EC50 reading was recorded for the compound O=C(NCC1(O)CCC(F)(F)CC1)c1cc(=O)c2cc(F)ccc2o1 ?
*A* 0.39 µM

###

target: CpKRS (Cryptosporidium parvum, UniProt Q5CR27); assay: Recombinant KRS thermal shift assay, CpKRS; assay type: binding; settings: ATP; 40 µM inhibitor
Sequence (Q5CR27 entry or part of it): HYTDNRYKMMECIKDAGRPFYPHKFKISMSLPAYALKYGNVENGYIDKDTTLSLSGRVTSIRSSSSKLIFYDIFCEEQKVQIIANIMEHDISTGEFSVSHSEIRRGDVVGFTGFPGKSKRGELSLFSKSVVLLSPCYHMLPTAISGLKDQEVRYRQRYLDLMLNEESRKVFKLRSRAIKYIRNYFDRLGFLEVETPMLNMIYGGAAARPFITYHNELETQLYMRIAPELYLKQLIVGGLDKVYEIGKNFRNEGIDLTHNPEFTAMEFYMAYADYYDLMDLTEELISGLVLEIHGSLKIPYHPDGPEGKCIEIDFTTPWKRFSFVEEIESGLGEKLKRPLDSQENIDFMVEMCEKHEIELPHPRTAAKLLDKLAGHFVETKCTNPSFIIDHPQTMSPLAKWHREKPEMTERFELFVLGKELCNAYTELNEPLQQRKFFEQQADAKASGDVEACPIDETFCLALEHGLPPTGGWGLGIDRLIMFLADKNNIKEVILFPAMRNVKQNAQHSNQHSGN
Measure Name: ΔTm at 40 µM (°C)
Enter your answer as a number in °C; do not include the unit.

*Q* Recorded ΔTm at 40 µM for O=C(NCC1CCCCC1)c1cc(=O)c2cc(F)ccc2o1 , please?
*A* 0.2

*Q* Which ΔTm at 40 µM is reported for this compound? O=C(NCC1(O)CCCCC1)c1cc(=O)c2cc(F)ccc2o1
*A* 0

*Q* Recorded ΔTm at 40 µM for O=C(NCC1CCCCC1)c1cc(=O)c2ccccc2o1 , please?
*A* 0.7

*Q* Using the record for C[C@H]1CCC[C@H](C[C@H]2Cc3cc(O)cc(O)c3C(=O)O2)O1 [Compound 1, cladosporin, reference compound] , report its ΔTm at 40 µM.
*A* 0.1

*Q* Return reported ΔTm at 40 µM; argument: O=C(NCC1(O)CCC(F)(F)CC1)c1cc(=O)c2cc(F)ccc2o1
*A* -0.2

###

target: PfKRS1 (Plasmodium falciparum); assay: Recombinant KRS thermal shift assay, PfKRS1; format: binding; design: recombinant PfKRS1 (77–583 and 80–583); 6xHis (N); made in house; host or cells: E. coli Rosetta BL21(DE3), vector pAVA0421; settings: read-out: ΔTm PfKRS, ATP + Lysine; 40 µM inhibitor
Sequence (Q8IDJ8 77-583): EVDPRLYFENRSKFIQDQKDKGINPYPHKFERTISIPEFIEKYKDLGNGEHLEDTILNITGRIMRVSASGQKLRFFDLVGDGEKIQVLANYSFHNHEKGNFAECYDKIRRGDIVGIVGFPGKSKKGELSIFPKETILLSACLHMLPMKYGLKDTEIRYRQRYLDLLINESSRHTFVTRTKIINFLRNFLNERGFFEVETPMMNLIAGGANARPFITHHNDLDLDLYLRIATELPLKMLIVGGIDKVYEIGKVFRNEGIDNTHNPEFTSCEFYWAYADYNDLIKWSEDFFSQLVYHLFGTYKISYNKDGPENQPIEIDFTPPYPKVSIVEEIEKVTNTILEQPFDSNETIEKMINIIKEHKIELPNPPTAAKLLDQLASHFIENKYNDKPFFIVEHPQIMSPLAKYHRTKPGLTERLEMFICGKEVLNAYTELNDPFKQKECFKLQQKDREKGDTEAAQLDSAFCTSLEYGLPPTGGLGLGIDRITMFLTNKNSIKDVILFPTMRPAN
Measure Name: ΔTm at 40 µM (°C)
Kindly answer with a numeric value in °C, unit omitted.

*Q* Query (compound): O=C(NCC1CCCCC1)c1cc(=O)c2cc(F)ccc2o1 ; field requested: ΔTm at 40 µM
*A* 2.4

*Q* Name the reported ΔTm at 40 µM value associated with the compound O=C(NCC1(O)CCC(F)(F)CC1)c1cc(=O)c2cc(F)ccc2o1
*A* 5.3

*Q* Consider the compound O=C(NCC1(O)CCCCC1)c1cc(=O)c2cc(F)ccc2o1 and give its measured ΔTm at 40 µM.
*A* 5.1

*Q* Which ΔTm at 40 µM is reported for this compound? O=C(NCC1CCCCC1)c1cc(=O)c2ccccc2o1
*A* 5.1

###

target: HsKRS (Homo sapiens, UniProt Q15046); construct: HsKRS (full-length) proteins; 6xHis (N); made in house; host or cells: E. coli Rosetta BL21(DE3), vector pAVA0421 (UW); template pET28a-KRS; assay: Recombinant KRS thermal shift assay, HsKRS; format: binding; conditions: no substrate; 40 µM inhibitor
Sequence (Q15046 whole entry): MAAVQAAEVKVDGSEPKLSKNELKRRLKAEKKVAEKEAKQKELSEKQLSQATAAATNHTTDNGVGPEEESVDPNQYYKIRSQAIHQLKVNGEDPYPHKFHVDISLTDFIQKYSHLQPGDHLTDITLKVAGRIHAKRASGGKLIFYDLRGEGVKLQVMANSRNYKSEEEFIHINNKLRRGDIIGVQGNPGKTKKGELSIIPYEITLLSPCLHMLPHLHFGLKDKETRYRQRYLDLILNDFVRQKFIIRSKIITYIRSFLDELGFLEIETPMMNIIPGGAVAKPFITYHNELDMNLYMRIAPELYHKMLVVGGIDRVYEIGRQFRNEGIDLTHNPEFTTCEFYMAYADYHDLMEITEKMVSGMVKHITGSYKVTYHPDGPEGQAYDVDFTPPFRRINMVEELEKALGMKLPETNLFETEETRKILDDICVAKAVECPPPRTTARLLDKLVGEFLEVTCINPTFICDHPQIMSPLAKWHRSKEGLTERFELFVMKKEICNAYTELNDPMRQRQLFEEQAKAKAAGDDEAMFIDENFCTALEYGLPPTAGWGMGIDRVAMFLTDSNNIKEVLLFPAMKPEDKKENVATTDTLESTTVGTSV
Measure Name: ΔTm at 40 µM (°C)
# unit: °C | format: bare number

*Q* Fill blank: measured ΔTm at 40 µM of the compound O=C(NCC1(O)CCCCC1)c1cc(=O)c2cc(F)ccc2o1 [Compound 4] is ____.
*A* -0.5

*Q* Which ΔTm at 40 µM value is on record for O=C(NCC1CCCCC1)c1cc(=O)c2cc(F)ccc2o1 [Compound 3] ?
*A* -0.1

*Q* // returns reported ΔTm at 40 µM for input O=C(NCC1(O)CCC(F)(F)CC1)c1cc(=O)c2cc(F)ccc2o1 [Compound 5]
*A* 0.3

*Q* # ΔTm at 40 µM lookup, item C[C@H]1CCC[C@H](C[C@H]2Cc3cc(O)cc(O)c3C(=O)O2)O1 [Compound 1, cladosporin, reference compound]
*A* -0.1

*Q* For O=C(NCC1CCCCC1)c1cc(=O)c2ccccc2o1 [Compound 2] , what is its reported ΔTm at 40 µM?
*A* -0.3

###

Measure Name: IC50 (nM)
Reply with just the number (in nM).

*Q* Provide value of IC50 for this record tested with CpKRS (Cryptosporidium parvum): C[C@H]1CCC[C@H](C[C@H]2Cc3cc(O)cc(O)c3C(=O)O2)O1 [Compound 1, cladosporin, reference compound]
*A* 38

*Q* Test system CpKRS (Cryptosporidium parvum); read-out IC50; what value for O=C(NCC1(O)CCC(F)(F)CC1)c1cc(=O)c2cc(F)ccc2o1 ?
*A* 130

*Q* Find IC50 (CpKRS (Cryptosporidium parvum)) for the entry O=C(NCC1CCCCC1)c1cc(=O)c2cc(F)ccc2o1
*A* 39

*Q* Identify the measured IC50 of O=C(NCC1CCCCC1)c1cc(=O)c2ccccc2o1 for CpKRS (Cryptosporidium parvum).
*A* 22

*Q* Requested read-out IC50, target or system CpKRS (Cryptosporidium parvum), entry O=C(NCC1(O)CCCCC1)c1cc(=O)c2cc(F)ccc2o1
*A* 8

###

target: CpKRS (Cryptosporidium parvum, UniProt Q5CR27); test: Recombinant KRS thermal shift assay, CpKRS; type: binding; settings: ATP + Lysine; 40 µM inhibitor
Measure Name: ΔTm at 40 µM (°C)
Write down the numeric answer in °C and omit the unit.

*Q* Looking for the measured ΔTm at 40 µM of C[C@H]1CCC[C@H](C[C@H]2Cc3cc(O)cc(O)c3C(=O)O2)O1 [Compound 1, cladosporin, reference compound] , can you help?
*A* 14

*Q* Which value of ΔTm at 40 µM has been reported for O=C(NCC1(O)CCC(F)(F)CC1)c1cc(=O)c2cc(F)ccc2o1 in the records?
*A* 13

*Q* Give the measured ΔTm at 40 µM of O=C(NCC1CCCCC1)c1cc(=O)c2cc(F)ccc2o1 .
*A* 0.8

*Q* Entry O=C(NCC1(O)CCCCC1)c1cc(=O)c2cc(F)ccc2o1 has what ΔTm at 40 µM?
*A* 11.8

*Q* Using the record for O=C(NCC1CCCCC1)c1cc(=O)c2ccccc2o1 , report its ΔTm at 40 µM.
*A* 11.7

###

assay: In vivo pharmacokinetics in mouse; details: female, BALB/c, whole blood, po, orally, 10 mg/kg, read-out: Mouse PK orally Tmax
Measure Name: Tmax
Just the number plus its unit, please.

*Q* Which Tmax value is on record for O=C(NCC1(O)CCC(F)(F)CC1)c1cc(=O)c2cc(F)ccc2o1 ?
*A* 2 h

###

assay: FaSSIF solubility; type: physicochemical; conditions: 37 °C, thermodynamic from solid; FaSSIF pH 6.5
Measure Name: solubility at 5 h (µM)
// note: answer is a bare numeric in µM

*Q* Return reported solubility at 5 h; argument: O=C(NCC1(O)CCC(F)(F)CC1)c1cc(=O)c2cc(F)ccc2o1
*A* 255

###

target: CpKRS (Cryptosporidium parvum); assay: Recombinant KRS thermal shift assay, CpKRS; format: binding; conditions: no substrate; 40 µM inhibitor
Give measured ΔTm at 40 µM for each item. Keep answers brief.
Answer with the value and then the unit.

*Q* // ΔTm at 40 µM lookup, key: O=C(NCC1(O)CCCCC1)c1cc(=O)c2cc(F)ccc2o1 [Compound 4]
*A* -0.2 °C

*Q* Any idea what ΔTm at 40 µM was measured for O=C(NCC1CCCCC1)c1cc(=O)c2cc(F)ccc2o1 [Compound 3] ?
*A* -0.2 °C

*Q* Value lookup for ΔTm at 40 µM; key = O=C(NCC1CCCCC1)c1cc(=O)c2ccccc2o1 [Compound 2]
*A* 0 °C

*Q* Quick check: ΔTm at 40 µM of C[C@H]1CCC[C@H](C[C@H]2Cc3cc(O)cc(O)c3C(=O)O2)O1 [Compound 1, cladosporin, reference compound] ?
*A* -0.1 °C

*Q* What value of measured ΔTm at 40 µM is listed for O=C(NCC1(O)CCC(F)(F)CC1)c1cc(=O)c2cc(F)ccc2o1 [Compound 5] ?
*A* -0.5 °C

###

molecular target: HsKRS (Homo sapiens); construct: HsKRS (full-length) proteins; 6xHis (N); made in house; host or cells: E. coli Rosetta BL21(DE3), vector pAVA0421 (UW); template pET28a-KRS; test: Recombinant KRS thermal shift assay, HsKRS; type: binding; settings: Lysine; 40 µM inhibitor
Measure Name: ΔTm at 40 µM (°C)
Give the value in °C but do not write °C after it.

*Q* If you can, please state the reported ΔTm at 40 µM value of O=C(NCC1CCCCC1)c1cc(=O)c2ccccc2o1 [Compound 2] .
*A* -10

*Q* GET /values?readout=ΔTm at 40 µM&item= O=C(NCC1CCCCC1)c1cc(=O)c2cc(F)ccc2o1 [Compound 3]
*A* -8.4

*Q* # ΔTm at 40 µM lookup, item O=C(NCC1(O)CCC(F)(F)CC1)c1cc(=O)c2cc(F)ccc2o1 [Compound 5]
*A* -7.6

*Q* Quick one: ΔTm at 40 µM for C[C@H]1CCC[C@H](C[C@H]2Cc3cc(O)cc(O)c3C(=O)O2)O1 [Compound 1, cladosporin, reference compound] ?
*A* -9.2

*Q* Fill in the blank: the reported ΔTm at 40 µM of O=C(NCC1(O)CCCCC1)c1cc(=O)c2cc(F)ccc2o1 [Compound 4] is ____.
*A* -7.4
